Recorded values, source patent US10151975B2.

experiment: Solubility of the compounds: visual homogeneity of mixture in aqueous buffer pH 7; type: physicochemical; parameters: key: −: heterogeneous mixture; +: homogeneous mixture; conditions: 100 mg compound in 5 ml aqueous buffer pH = 7, room temperature, after 2 weeks

{"columns": ["molecule", "Visual homogeneity After 2 weeks"],
 "data": [
  ["C=CC(=O)OCCn1c(=O)n(CCOC(=O)C=C)c(=O)n(CCOC(=O)C=C)c1=O", "−"],
  ["C=C(C)C(=O)OCCCNC(=O)C(=O)NCCCOC(=O)C(=C)C", "−"],
  ["C=CC(=O)NCCOC(=O)C(=O)OCCNC(=O)C=C", "+"],
  ["C=C(C)C(=O)OCCOC(=O)NCCC(C)CC(C)(C)CNC(=O)OCCOC(=O)C(=C)C (stereo not shown)", "−"],
  ["C=C(C)C(=O)OCCOC(=O)C(=O)OCCOC(=O)C(=C)C", "+"],
  ["C=CC(=O)OCCOCCOc1ccc(C(C)(C)c2ccc(OCCOC(=O)C=C)cc2)cc1", "−"],
  ["C=CC(=O)OCCCCOC(=C)C(=O)OCCCCOC(=O)C=C", "+"]
]}
